Measured values drawn from PubChem BioAssay (NCI) for this set.

Tested on: EKVX NSCLC
ASSAY EXPLANATION: NCI tumour cell line growth inhibition, 48 h; in the data active = GI50 below about 0.43 µM; inactive = the rest
// one of active, inactive, no free text

| MOLECULE | ASSAY TARGET | DISCRETE LABEL |
| --- | --- | --- |
| CCC1=C[C@H]2CN(CCc3c([nH]c4ccccc34)[C@@](C(=O)OC)(c3cc4c(cc3OC)N(C)[C@H]3[C@@](O)(C(=O)OC)[C@H](OC(C)=O)[C@]5(CC)[C@@H]6C[C@@H]6CN6CC[C@]43[C@@H]65)C2)C1 | EKVX NSCLC | active |
| COc1cc([C@@H]2c3cc4c(cc3[C@H](O)[C@H]3COC(=O)[C@@H]23)OCO4)cc(OC)c1OC | EKVX NSCLC | inactive |
| CN(C)CCOc1cccc(NC2=C(Cl)C(=O)C(Nc3cccc(OCCN(C)C)c3)=C(Cl)C2=O)c1 | EKVX NSCLC | inactive |

What outcome does the record of this test show for `O=C1C=CC(=O)N1CCCCCCCCCCN1C(=O)C=CC1=O` ? inactive

Ok, now `O=C(Nc1ncc(Cc2ccc(Cl)cc2)s1)c1ccc2c(c1)OCCO2` active

Ok, now COC(C(=O)[C@@H](O)[C@@H](C)O)[C@@H]1Cc2cc3cc(O[C@H]4C[C@@H](O[C@H]5C[C@@H](O)[C@H](O)C(C)O5)[C@H](O)C(C)O4)c(C)c(O)c3c(O)c2C(=O)[C@H]1O[C@H]1C[C@@H](O[C@H]2C[C@@H](O[C@H]3C[C@@H](O)[C@@H](O)C(C)O3)[C@@H](O)C(C)O2)[C@H](O)C(C)O1 (some centres not stated) inactive

Ok, now `COc1cc2c3c(n(CCCN4CCOCC4)c(=O)c2cc1OC)-c1cc2c(cc1C3=O)OCO2` inactive
